assay remarks: Volume of distribution in mouse at 5 mg/kg, iv
Format: ADME, organism-based
Set-up: dose 5 mg/kg, route intravenous
condition summary: in vivo
readout: Vd (L/kg)
# number only, unit L/kg dropped from output

Qu. Form field: reported Vd of CC(C)N1CCN(C(=O)c2ccc(NC(=O)Nc3ccc(-c4nc(C5CCOCC5)nc(N5C6CCC5COC6)n4)cc3)cc2)CC1
Ans. 1.3

###

assay remarks: Drug level in tumor of human MDA-MB-361 cells xenografted nude mouse at 25 mg/kg, iv after 8 hrs
Assay type: ADME, organism-based, Neoplasm
Parameters: dose 25 mg/kg, route intravenous
condition summary: read-out: Drug uptake
readout: concentration at 8 h (ng/mL)
The figure you give is taken to be in ng/mL; do not add the unit.

Qu. Please report the recorded concentration at 8 h for CC(C)N1CCN(C(=O)c2ccc(NC(=O)Nc3ccc(-c4nc(C5CCOCC5)nc(N5C6CCC5COC6)n4)cc3)cc2)CC1 .
Ans. 2470

###

assay remarks: Drug level in plasma of nude mouse bearing human MDA-MB-361 cells at 25 mg/kg, iv after 8 hrs
Format: ADME, organism-based
Design: dose 25 mg/kg, route intravenous
condition summary: read-out: Drug uptake
readout: concentration at 8 h
Answer as a quantity: numeral, then unit.

Qu. // concentration at 8 h lookup, key: CC(C)N1CCN(C(=O)c2ccc(NC(=O)Nc3ccc(-c4nc(C5CCOCC5)nc(N5C6CCC5COC6)n4)cc3)cc2)CC1
Ans. 2160 ng/mL

All figures here come from ChEMBL document CHEMBL1156955.
